From: PubChem BioAssay (NCI)

System: HS 578T breast
Test: NCI-60 one-dose screen, 48 h (100 = growth as untreated, 0 = no growth, -100 = all killed)
Details: 10 µM
Compounds without any hit were thinned out: in the full panel of roughly 83,000, 20% have a hit. Calls of active or inactive are those of the source. How the source made its calls: active means growth percent below 10; inactive means the rest.
Property: growth

A selection of reference data follows.
N#Cc1ncc(-c2cc(F)c(F)c(F)c2)c(NC2CCCCCC2)n1
73.3% (inactive)
COc1cc(-c2cc(/C=C/C(=O)c3ccc(F)c(F)c3)[nH]n2)cc(OC)c1OC
61.3% (inactive)
COc1ccc(-c2nc3ncccn3c2-c2nnc(-c3ccsc3C)o2)cc1
56.4% (inactive)
CCc1ccc2c(c1)N(CCO)C1=C(C(=O)OC1)C2c1ccccc1 (stereo not given)
125% (inactive)
O=C(Nc1cccc(-n2cc(-c3ccncc3)c(-c3cc(O)cc(Cl)c3)n2)c1)Nc1ccc(Cl)c(C(F)(F)F)c1
21.7% (inactive)

Bench note: what growth did CN1CCC2(CC1)NC(=O)c1c(c3ccc(Cl)c(Cl)c3n1C)C2C#N (stereo not given) show? 71.1% (inactive)

Bench note: what growth did "O=C(Nc1cccc(-n2cc(-c3ccncc3)c(-c3ccc(O)c(Cl)c3)n2)c1)Nc1ccc(Cl)c(Cl)c1" show? -0.243% (active)

Bench note: what growth did "O=[N+]([O-])c1cccc(N=Cc2ccc3c(c2)OCO3)c1" show? 116% (inactive)

Bench note: what growth did "CN(C)CCNC(=O)c1cccn2c(=O)c3cc4ccccc4cc3nc12" show? -14.5% (active)

Bench note: what growth did "CCCCCCCCN(CCCCCCCC)CCCCCCCCCN1CCCc2cc(OC)ccc21" show? 91.3% (inactive)

* * *

# growth per entry
Test system: HS 578T breast
Assay: NCI-60 one-dose screen, 48 h (100 = growth as untreated, 0 = no growth, -100 = all killed)
Settings: 10 µM
Procedure: Growth inhibition of the HS 578T human tumor cell line is measured as a screen for anti-cancer activity. Cells are grown in 96 well plates and exposed to the test compound for 48 hours. Compounds are tested at a single concentration, which is 10^-5 M for most compounds. The reported endpoint is percent growth (GI% or GIPRCNT), where numbers from 0 - 100% represent growth inhibition, and numbers from -100% - 0 represent cell death. For example, a value of 40 represents 60% growth inhibition. […]
The panel holds about 83,000 compounds, 20% with a hit somewhere; the sample as a whole holds those more often.
Please give a number only; it is taken to be in %.

A selection of reference data follows.
CCCCC(CCCCCC(CCCC)NCc1ccc2c(c1)OCO2)NCc1ccc2c(c1)OCO2 (stereo not drawn)
-67.7
COc1cc(/C=C/C(=O)c2ccc(Cl)cc2)ccc1OS(=O)(=O)c1ccc(C)cc1
129
OCC1OC(n2cnc3c(N/N=C\c4ccccn4)ncnc32)C(O)C1O (stereo not drawn)
14.5
C=C(Cl)[C@@](Cl)(CBr)CC[C@@H](Br)C(C)(C)Cl
-29
COc1cccc(Cn2c(-c3nonc3N)nc3ccccc32)c1
3.15

Bench note: what growth did "COc1ccc(NC(=O)Cc2nc3nc4sc(C)c(C)c4c(=O)n3[nH]2)cc1" show? 107

Bench note: what growth did "COc1cc(NC(=O)CCSc2nc3ccc(Cl)cc3c(=O)n2Cc2ccccc2)cc(OC)c1OC" show? 40.3

* * *

System: SF-268 CNS
Test: NCI-60 one-dose screen, 48 h
Settings: 10 µM
About 83,000 compounds went through this panel and 20% of them were active in at least one assay; those are over-represented in the sample as a whole. Active and inactive are the calls of the source. Rule for the calls: active = growth percent below 10; inactive = the rest.
Use one of these outcomes when replying: 1.0 for active, 0.0 for inactive

CC(C)=CCc1cc(O)cc2c1OC(C=C(C)C)C1=C2C(=O)C2=C(NCCS2(=O)=O)C1=O (configuration not stated)
1.0

Any idea what this test logged for "O=C1/C(=C\c2ccc(Br)cc2)CN(C(=O)c2ccccc2F)C/C1=C\c1ccc(Br)cc1" ? 1.0

Any idea what this test logged for "CC(=O)/C(=C/c1ccccc1)C(=O)CC(C)C" ? 0.0

Any idea what this test logged for "CCCCCCCCCCCCCC[n+]1ccc(C(N)=O)cc1" ? 1.0

Any idea what this test logged for "CN(C)CCS(=O)(=O)CCN(C)C" ? 0.0

Any idea what this test logged for COc1ccc(-c2nsc3c2NC(=O)CC3c2ccc(F)cc2)cc1 (configuration not stated) ? 0.0

Any idea what this test logged for "O=C1/C(=C/c2ccc([N+](=O)[O-])s2)Oc2ccccc21" ? 1.0

Any idea what this test logged for COc1ccc(N2C(=O)C3c4[nH]c5ccc(OCc6ccccc6)cc5c4C4CCC(C(C)C)CC4C3C2=O)cc1 (configuration not stated) ? 0.0

* * *

Test system: RPMI-8226 leukemia
Test: NCI-60 one-dose screen, 48 h
Settings: 10 µM
Compounds without any hit were thinned out: in the full panel of roughly 83,000, 20% have a hit. Calls of active or inactive are those of the source. The calls were made as follows: active = growth percent below 10; inactive = the rest.
Use one of these outcomes when replying: 1.0 (active), 0.0 (inactive)

Previously resolved entries follow.
NC(=S)N=Nc1c(O)c2ccccc2c2ccccc12
0.0
CC(C)C[C@H](NC(=O)[C@H](Cc1cccc2ccccc12)NS(=O)(=O)c1cccc2cccnc12)B(O)O
1.0
Cc1cccc(Cl)c1NC(=O)c1ccc2nc(NC(=O)NC3CCN(C)CC3)sc2c1
0.0
O=C(Nc1cccc(-n2cc(-c3ccncc3)c(-c3ccc(O)c(Cl)c3)n2)c1)c1cccc(C(F)(F)F)c1
0.0
O=C(c1ccc(Cl)cc1Cl)N1CCOCC1
0.0
N#Cc1ncc(-c2ccc(C(F)(F)F)cc2)c(NCc2cc(C(F)(F)F)cc(C(F)(F)F)c2)n1
1.0
Clc1ccc(-c2cn(-c3ccccc3)c(-c3ccccc3)n2)c(Cl)c1
0.0
COc1ccc(-c2nc(-c3nc4cc(Cl)c(F)cc4[nH]3)c3ccccn23)cc1
1.0

Any idea what this test logged for "CCCCCCN1CCN(Cc2ccc(N(CC)CC)cc2)C(=O)C1=O" ? 1.0

Any idea what this test logged for CN(C)CC(O)c1ccc2cc(Br)c3ccccc3c2c1 (centres undefined) ? 0.0

Any idea what this test logged for COc1cc2c(cc1OC)N(CCO)C1=C(C(=O)OC1)C2c1ccc(Cl)c(Cl)c1 (centres undefined) ? 0.0

Any idea what this test logged for "NC(=O)c1ccc(-c2cccc3c(=O)nc(N4CCOCC4)oc23)cc1" ? 0.0

Any idea what this test logged for COc1cccc(C2C3=C(COC3=O)N(CCO)c3cc(OC)ccc32)c1 (centres undefined) ? 0.0

Any idea what this test logged for "Nc1c(C(=O)Nc2cccc(F)c2)sc2nc3c(cc12)C(=O)CCC3" ? 0.0

Any idea what this test logged for "COC(=O)c1c(-c2ccccc2)csc1NC(=O)c1c(-c2ccccc2)noc1C" ? 0.0

Any idea what this test logged for "COc1ccc(C(=O)/C=C/c2cc(-c3cc(OC)c(OC)c(OC)c3)n[nH]2)cc1" ? 1.0

Any idea what this test logged for O=C1ON=[N+](c2ccc(Cc3ccc([N+]4=NOC(=O)C4CN4CCOCC4)cc3)cc2)C1CN1CCOCC1 (centres undefined) ? 0.0

Any idea what this test logged for "CSc1nc(=O)n(Cc2ccc(F)cc2)c(=O)n1Cc1ccc(C)cc1" ? 0.0

* * *

Test system: CCRF-CEM leukemia
Experiment: NCI-60 one-dose screen, 48 h
Details: 10 µM
The panel holds about 83,000 compounds, 20% with a hit somewhere; the sample as a whole holds those more often. Active and inactive are the calls of the source. The calls were made as follows: active = growth percent below 10; inactive = the rest.
Use one of these outcomes when replying: class 1 (active), class 0 (inactive)

Previously resolved entries follow.
COc1cc(-c2cc(/C=C/C(=O)c3ccc(Cl)c(Cl)c3)[nH]n2)cc(OC)c1OC
class 1
Cc1cn(C2CCCCO2)c(=O)nc1NO (stereo unspecified)
class 0
C(CCCC1=NCCO1)CCCC1=NCCO1
class 0
O=C(Nc1cccc(-n2cc(-c3ccncc3)c(-c3ccc(O)c(Cl)c3)n2)c1)c1ccc(Cl)c(Cl)c1
class 0
COc1cccc(C2C3=C(COC3=O)N(CCO)c3cc(OC)ccc32)c1 (stereo unspecified)
class 0
Clc1ccc(Nc2ccnc(NCCNc3ccnc4cc(Cl)ccc34)n2)cc1
class 1
O=C(Nc1cccc(-n2cc(-c3ccncc3)c(-c3cc(O)cc(Cl)c3)n2)c1)c1cc(C(F)(F)F)cc(C(F)(F)F)c1
class 0
O=C(Nc1cccc(-n2cc(-c3ccncc3)c(-c3cc(O)cc(Cl)c3)n2)c1)Nc1ccc(Cl)c(C(F)(F)F)c1
class 1

Any idea what this test logged for "Cc1ccc(S(=O)(=O)OCCN(CCOS(=O)(=O)c2ccc(C)cc2)c2c[nH]c(=O)[nH]c2=O)cc1" ? class 0

Any idea what this test logged for "COc1cc(CNc2ccccc2C(=O)N2CCN(C(=O)c3cc(-c4cc(OC)c(OC)c(OC)c4)n4nc(-c5ccccc5)cc4n3)CC2)cc(OC)c1OC" ? class 0

Any idea what this test logged for "Oc1[nH]c2ccc(Cl)cc2c1/C=c1/ccc2c(c1)N=C(c1cccs1)N=2" ? class 0

Any idea what this test logged for CCOCC(=O)C(C#N)c1ccc(Cl)c(Cl)c1 (stereo unspecified) ? class 0

Any idea what this test logged for "Cc1cc(Cl)nc(N(CCCNc2ccnc3cc(Cl)ccc23)Cc2cccs2)n1" ? class 1

Any idea what this test logged for "COc1ccc(Cl)cc1-n1nnc(-c2nc3ccccc3[nH]2)c1N" ? class 0

Any idea what this test logged for CCCCCCN1C(=O)C2=C(c3ccc(Cl)cc3)Nc3c(c(C)nn3-c3ccccc3)C2c2ccccc21 (stereo unspecified) ? class 0

Any idea what this test logged for "COc1ccc(-c2nc3ncccn3c2-c2nnc(-c3ccc(F)cc3)o2)cc1" ? class 0
